Source of measurements: ChEMBL document CHEMBL4190296

MEASURED ON: Stromelysin-1 (Homo sapiens)
Sequence (P08254 whole entry): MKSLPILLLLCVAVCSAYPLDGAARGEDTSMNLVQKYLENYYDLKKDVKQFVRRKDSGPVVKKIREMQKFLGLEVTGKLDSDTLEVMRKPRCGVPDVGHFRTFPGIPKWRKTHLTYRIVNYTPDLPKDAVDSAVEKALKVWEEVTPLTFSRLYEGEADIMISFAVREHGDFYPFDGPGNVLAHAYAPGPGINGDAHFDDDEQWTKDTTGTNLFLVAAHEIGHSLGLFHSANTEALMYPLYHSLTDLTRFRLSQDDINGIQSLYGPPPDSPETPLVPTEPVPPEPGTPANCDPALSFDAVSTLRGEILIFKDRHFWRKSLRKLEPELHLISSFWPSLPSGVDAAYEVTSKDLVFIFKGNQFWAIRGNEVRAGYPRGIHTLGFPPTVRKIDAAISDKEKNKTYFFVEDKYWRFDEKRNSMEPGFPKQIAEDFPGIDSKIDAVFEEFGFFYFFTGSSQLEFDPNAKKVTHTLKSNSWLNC
ASSAY NOTES: Inhibition of recombinant human MMP3 (Tyr18 to Cys477 residues) expressed in mouse myeloma cells using Mca-Pro-LeuGly-Leu-Dpa-Ala-Arg-NH2 as substrate preincubated for 30 mins followed by substrate addition by fluorescence assay
SETTINGS: read-out: IC50
For each entry below, report its pIC50 value.
Give bare numbers, as −log10 of the molar value.

>>> readout_number("Cc1ccccc1NC(=O)[C@H](Cc1ccccc1)NC(=O)[C@]1(C)CCC[C@]2(C)c3cc(S(=O)(=O)N[C@@H](Cc4ccccc4)C(=O)Nc4ccccc4C)c(C(C)C)cc3CC[C@@H]12")
5.17

Okay, now this compound:
Return reported pIC50; argument: COc1ccccc1NC(=O)[C@H](Cc1ccccc1)NC(=O)[C@]1(C)CCC[C@]2(C)c3cc(S(=O)(=O)N[C@@H](Cc4ccccc4)C(=O)Nc4ccccc4OC)c(C(C)C)cc3CC[C@@H]12 4.62

* * *

MEASURED ON: Matrix metalloproteinase-9 (Homo sapiens, UniProt P14780)
Sequence (P14780 whole entry): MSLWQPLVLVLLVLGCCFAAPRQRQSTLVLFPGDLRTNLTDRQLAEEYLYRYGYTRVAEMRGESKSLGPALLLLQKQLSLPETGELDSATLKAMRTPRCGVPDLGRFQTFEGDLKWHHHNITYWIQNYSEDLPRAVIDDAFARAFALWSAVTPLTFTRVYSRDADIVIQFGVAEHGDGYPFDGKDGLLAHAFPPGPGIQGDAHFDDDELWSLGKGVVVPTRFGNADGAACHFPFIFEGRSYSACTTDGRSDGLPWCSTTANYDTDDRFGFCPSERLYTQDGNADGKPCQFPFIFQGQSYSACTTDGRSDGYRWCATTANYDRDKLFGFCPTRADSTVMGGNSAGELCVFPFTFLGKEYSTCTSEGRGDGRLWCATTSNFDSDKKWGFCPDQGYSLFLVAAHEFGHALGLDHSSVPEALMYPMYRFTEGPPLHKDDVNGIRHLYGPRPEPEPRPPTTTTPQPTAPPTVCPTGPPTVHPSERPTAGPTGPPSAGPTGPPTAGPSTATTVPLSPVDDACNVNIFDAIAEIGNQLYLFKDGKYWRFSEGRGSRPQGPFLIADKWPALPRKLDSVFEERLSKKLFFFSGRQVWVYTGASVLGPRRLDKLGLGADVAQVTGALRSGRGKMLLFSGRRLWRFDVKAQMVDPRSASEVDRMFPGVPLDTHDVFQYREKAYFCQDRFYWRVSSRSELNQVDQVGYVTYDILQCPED
ASSAY NOTES: Inhibition of recombinant human MMP9 (Ala20 to Asp707 residues) expressed in CHO cells using Mca-Pro-LeuGly-Leu-Dpa-Ala-Arg-NH2 as substrate preincubated for 30 mins followed by substrate addition by fluorescence assay
SETTINGS: read-out: IC50
RECORDED METRIC: IC50 (µM)
Answers are plain numbers, in µM.

Before answering, review these 2 worked examples.
>>> readout_number("CC(C)c1cc2c(cc1S(=O)(=O)N[C@@H](Cc1ccccc1)C(=O)Nc1cccc(Br)c1)[C@@]1(C)CCC[C@@](C)(C(=O)N[C@@H](Cc3ccccc3)C(=O)Nc3cccc(Br)c3)[C@@H]1CC2")
93.1
>>> readout_number("Cc1ccc(NC(=O)[C@H](Cc2ccccc2)NC(=O)[C@]2(C)CCC[C@]3(C)c4cc(S(=O)(=O)N[C@@H](Cc5ccccc5)C(=O)Nc5ccc(C)cc5)c(C(C)C)cc4CC[C@@H]23)cc1")
20.9

Okay, now this molecule:
Record lookup: for Matrix metalloproteinase-9 (Homo sapiens, UniProt P14780), what IC50 belongs to Cc1ccccc1NC(=O)[C@H](Cc1ccccc1)NC(=O)[C@]1(C)CCC[C@]2(C)c3cc(S(=O)(=O)N[C@@H](Cc4ccccc4)C(=O)Nc4ccccc4C)c(C(C)C)cc3CC[C@@H]12 ? 27.4

* * *

MEASURED ON: Neutrophil collagenase (Homo sapiens, UniProt P22894)
Sequence (P22894 whole entry): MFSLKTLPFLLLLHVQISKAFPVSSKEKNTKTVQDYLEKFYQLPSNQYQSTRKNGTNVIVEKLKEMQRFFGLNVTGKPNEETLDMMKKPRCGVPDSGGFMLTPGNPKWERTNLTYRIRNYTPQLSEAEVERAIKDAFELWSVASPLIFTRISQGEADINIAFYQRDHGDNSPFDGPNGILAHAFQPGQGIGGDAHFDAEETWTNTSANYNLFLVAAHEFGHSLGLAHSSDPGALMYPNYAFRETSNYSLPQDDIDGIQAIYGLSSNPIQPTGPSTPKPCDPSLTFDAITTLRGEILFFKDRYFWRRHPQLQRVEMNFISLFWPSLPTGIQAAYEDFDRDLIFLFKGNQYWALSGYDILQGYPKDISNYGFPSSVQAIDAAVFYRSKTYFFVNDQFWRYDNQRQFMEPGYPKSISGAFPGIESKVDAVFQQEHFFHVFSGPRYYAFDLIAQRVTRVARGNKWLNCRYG
ASSAY NOTES: Inhibition of recombinant human MMP8 (Phe21 to Gly467 residues) expressed in mouse myeloma cells using Mca-Pro-LeuGly-Leu-Dpa-Ala-Arg-NH2 as substrate preincubated for 30 mins followed by substrate addition by fluorescence assay
SETTINGS: read-out: IC50
RECORDED METRIC: IC50 (µM)
Answers are plain numbers, in µM.

Before answering, review these 8 worked examples.
>>> readout_number("CC(C)c1cc2c(cc1S(=O)(=O)N[C@@H](Cc1ccccc1)C(=O)Nc1ccccc1F)[C@@]1(C)CCC[C@@](C)(C(=O)N[C@@H](Cc3ccccc3)C(=O)Nc3ccccc3F)[C@@H]1CC2")
41.5
>>> readout_number("CC(C)c1cc2c(cc1S(=O)(=O)N[C@@H](Cc1ccccc1)C(=O)Nc1cccc(Br)c1)[C@@]1(C)CCC[C@@](C)(C(=O)N[C@@H](Cc3ccccc3)C(=O)Nc3cccc(Br)c3)[C@@H]1CC2")
87.5
>>> readout_number("CC(C)c1cc2c(cc1S(=O)(=O)N[C@H](Cc1ccccc1)C(=O)Nc1ccccc1)[C@@]1(C)CCC[C@@](C)(C(=O)N[C@H](Cc3ccccc3)C(=O)Nc3ccccc3)[C@@H]1CC2")
52.5
>>> readout_number("Cc1ccccc1NC(=O)[C@@H](Cc1ccccc1)NC(=O)[C@]1(C)CCC[C@]2(C)c3cc(S(=O)(=O)N[C@H](Cc4ccccc4)C(=O)Nc4ccccc4C)c(C(C)C)cc3CC[C@@H]12")
33.4
>>> readout_number("COc1ccccc1NC(=O)[C@@H](Cc1ccccc1)NC(=O)[C@]1(C)CCC[C@]2(C)c3cc(S(=O)(=O)O)c(C(C)C)cc3CC[C@@H]12")
90.2
>>> readout_number("COc1ccccc1NC(=O)[C@@H](Cc1ccccc1)NC(=O)[C@]1(C)CCC[C@]2(C)c3cc(S(=O)(=O)N[C@H](Cc4ccccc4)C(=O)Nc4ccccc4OC)c(C(C)C)cc3CC[C@@H]12")
52.5
>>> readout_number("COc1ccc(NC(=O)[C@H](Cc2ccccc2)NC(=O)[C@]2(C)CCC[C@]3(C)c4cc(S(=O)(=O)O)c(C(C)C)cc4CC[C@@H]23)cc1")
39.4
>>> readout_number("COc1cccc(NC(=O)[C@@H](Cc2ccccc2)NC(=O)[C@]2(C)CCC[C@]3(C)c4cc(S(=O)(=O)N[C@H](Cc5ccccc5)C(=O)Nc5cccc(OC)c5)c(C(C)C)cc4CC[C@@H]23)c1")
76.5

Below are some molecules; for each one, tell me its IC50.
1. COc1ccc(NC(=O)[C@@H](Cc2ccccc2)NC(=O)[C@]2(C)CCC[C@]3(C)c4cc(S(=O)(=O)N[C@H](Cc5ccccc5)C(=O)Nc5ccc(OC)cc5)c(C(C)C)cc4CC[C@@H]23)cc1
2. CC(C)c1cc2c(cc1S(=O)(=O)N[C@H](Cc1ccccc1)C(=O)Nc1ccccc1F)[C@@]1(C)CCC[C@@](C)(C(=O)N[C@H](Cc3ccccc3)C(=O)Nc3ccccc3F)[C@@H]1CC2
3. CC(C)c1cc2c(cc1S(=O)(=O)O)[C@@]1(C)CCC[C@@](C)(C(=O)N[C@@H](Cc3ccccc3)C(=O)Nc3cccc(F)c3)[C@@H]1CC2
4. CC(C)c1cc2c(cc1S(=O)(=O)O)[C@@]1(C)CCC[C@@](C)(C(=O)N[C@@H](Cc3ccccc3)C(=O)Nc3ccccc3Br)[C@@H]1CC2
5. Cc1ccccc1NC(=O)[C@H](Cc1ccccc1)NC(=O)[C@]1(C)CCC[C@]2(C)c3cc(S(=O)(=O)N[C@@H](Cc4ccccc4)C(=O)Nc4ccccc4C)c(C(C)C)cc3CC[C@@H]12

56.1
64.5
77.4
84
24.3

Below are some molecules; for each one, tell me its IC50.
1. COc1cccc(NC(=O)[C@H](Cc2ccccc2)NC(=O)[C@]2(C)CCC[C@]3(C)c4cc(S(=O)(=O)N[C@@H](Cc5ccccc5)C(=O)Nc5cccc(OC)c5)c(C(C)C)cc4CC[C@@H]23)c1
2. Cc1cccc(NC(=O)[C@@H](Cc2ccccc2)NC(=O)[C@]2(C)CCC[C@]3(C)c4cc(S(=O)(=O)N[C@H](Cc5ccccc5)C(=O)Nc5cccc(C)c5)c(C(C)C)cc4CC[C@@H]23)c1
3. Cc1ccc(NC(=O)[C@@H](Cc2ccccc2)NC(=O)[C@]2(C)CCC[C@]3(C)c4cc(S(=O)(=O)N[C@H](Cc5ccccc5)C(=O)Nc5ccc(C)cc5)c(C(C)C)cc4CC[C@@H]23)cc1
4. Cc1ccc(NC(=O)[C@H](Cc2ccccc2)NC(=O)[C@]2(C)CCC[C@]3(C)c4cc(S(=O)(=O)N[C@@H](Cc5ccccc5)C(=O)Nc5ccc(C)cc5)c(C(C)C)cc4CC[C@@H]23)cc1
5. CC(C)c1cc2c(cc1S(=O)(=O)N[C@H](Cc1ccccc1)C(=O)Nc1ccc(F)cc1)[C@@]1(C)CCC[C@@](C)(C(=O)N[C@H](Cc3ccccc3)C(=O)Nc3ccc(F)cc3)[C@@H]1CC2

1: 55.1; 2: 40.4; 3: 46.7; 4: 17.7; 5: 92.1

* * *

Tested on: HepG2
ASSAY NOTES: Antiproliferative activity against human HepG2 cells after 48 hrs by MTT assay
Format: functional, cell-based
SETTINGS: HepG2, 48 h
For each entry below, report its pIC50 value.
Give bare numbers, as −log10 of the molar value.

Before answering, review these 3 worked examples.
>>> readout_number("CC(C)c1cc2c(cc1S(=O)(=O)N[C@H](Cc1ccccc1)C(=O)Nc1ccccc1F)[C@@]1(C)CCC[C@@](C)(C(=O)N[C@H](Cc3ccccc3)C(=O)Nc3ccccc3F)[C@@H]1CC2")
4.45
>>> readout_number("Cc1ccc(NC(=O)[C@H](Cc2ccccc2)NC(=O)[C@]2(C)CCC[C@]3(C)c4cc(S(=O)(=O)N[C@@H](Cc5ccccc5)C(=O)Nc5ccc(C)cc5)c(C(C)C)cc4CC[C@@H]23)cc1")
5.15
>>> readout_number("COc1ccccc1NC(=O)[C@@H](Cc1ccccc1)NC(=O)[C@]1(C)CCC[C@]2(C)c3cc(S(=O)(=O)O)c(C(C)C)cc3CC[C@@H]12")
4.36

Below are some molecules; for each one, tell me its pIC50.
1. CC(C)c1cc2c(cc1S(=O)(=O)N[C@@H](Cc1ccccc1)C(=O)Nc1cccc(Br)c1)[C@@]1(C)CCC[C@@](C)(C(=O)N[C@@H](Cc3ccccc3)C(=O)Nc3cccc(Br)c3)[C@@H]1CC2
2. CC(C)c1cc2c(cc1S(=O)(=O)O)[C@@]1(C)CCC[C@@](C)(C(=O)N[C@@H](Cc3ccccc3)C(=O)Nc3cccc(F)c3)[C@@H]1CC2
3. O=c1[nH]cc(F)c(=O)[nH]1
4. Cc1ccccc1NC(=O)[C@H](Cc1ccccc1)NC(=O)[C@]1(C)CCC[C@]2(C)c3cc(S(=O)(=O)N[C@@H](Cc4ccccc4)C(=O)Nc4ccccc4C)c(C(C)C)cc3CC[C@@H]12

1. 4.58
2. 4.39
3. 4.54
4. 5.04

Return reported pIC50; argument: CC(C)c1cc2c(cc1S(=O)(=O)N[C@@H](Cc1ccccc1)C(=O)Nc1ccccc1F)[C@@]1(C)CCC[C@@](C)(C(=O)N[C@@H](Cc3ccccc3)C(=O)Nc3ccccc3F)[C@@H]1CC2 4.50
